- Tested on: Cell membrane
- Protocol summary: Disruption of cell membrane in human MCF7 cells assessed as LDH release at 2.5 to 40 uM incubated for 1 hr by fluorescence based microplate reader analysis
- Format: cell membranes
- Condition notes: dose 2.5-40 µM
Activity calls are given as the source filed them. No cut-off for these calls is given here. Residues, ends and D or L forms follow the SMILES beside them.
Use one of these outcomes when replying: active, inactive

Take a look at these entries with their results.
Compound: CC(C)C[C@H](NC(=O)[C@H](CCCCN)NC(=O)[C@H](CCCCN)NC(=O)[C@H](CC(C)C)NC(=O)[C@H](CC(C)C)NC(=O)[C@H](CCCCN)NC(=O)[C@H](CCCCN)NC(=O)[C@H](CC(C)C)NC(=O)[C@H](CC(C)C)NC(=O)[C@H](CCCCN)NC(=O)[C@H](CCCCN)NC(=O)[C@H](CC(C)C)NC(=O)[C@@H](N)CC(C)C)C(=O)N[C@@H](CCC(=O)O)C(N)=O (H-LLKKLLKKLLKKLE-NH2)
Assigned class: active
--
Compound: CC(C)C[C@H](NC(=O)[C@H](CC(C)C)NC(=O)[C@H](CCCCN)NC(=O)[C@H](CCCCN)NC(=O)[C@H](CC(C)C)NC(=O)[C@H](CC(C)C)NC(=O)[C@H](CCCCN)NC(=O)[C@H](CCCCN)NC(=O)[C@H](CC(C)C)NC(=O)[C@H](CC(C)C)NC(=O)[C@H](CCCCN)NC(=O)[C@H](CCCCN)NC(=O)[C@H](CC(C)C)NC(=O)[C@@H](N)CC(C)C)C(N)=O (H-LLKKLLKKLLKKLL-NH2)
Assigned class: active

Please examine the following record next.
Per the records of this test, what outcome belongs to CC(=O)O[C@H]1C(=O)[C@@]2(C)[C@H]([C@H](OC(=O)c3ccccc3)[C@]3(O)C[C@H](OC(=O)[C@H](O)[C@@H](NC(=O)c4ccccc4)c4ccccc4)C(C)=C1C3(C)C)[C@]1(OC(C)=O)CO[C@@H]1C[C@@H]2O [PACLITAXEL] ?
inactive

----------
Let's look at some compounds and their measured selectivity ratio.
- Protocol summary: Therapeutic index, ratio of HC10 for mouse RBC to IC50 for cytotoxicity against human MCF7 cells
- Assay type: toxicity, cell-based
- Condition notes: mouse RBC and MCF7 cells, read-out: TI
Non-standard residues stand in square brackets, D forms with d. Residues, ends and D or L forms follow the SMILES beside them. Asu = N[C@@H](CCCCCC(=O)O)C(=O)O
Lab note: record just the number, no unit beside it.

Compound: CC(C)C[C@H](NC(=O)[C@H](CCCCN)NC(=O)[C@H](CC(C)C)NC(=O)[C@H](CC(C)C)NC(=O)[C@H](CCCCN)NC(=O)[C@H](CCCCN)NC(=O)[C@H](CC(C)C)NC(=O)[C@H](CC(C)C)NC(=O)[C@H](CCCCN)NC(=O)[C@H](CCCCN)NC(=O)[C@H](CC(C)C)NC(=O)[C@H](CC(C)C)NC(=O)[C@H](CCCCN)NC(=O)[C@H](CCCCN)NC(=O)[C@H](CC(C)C)NC(=O)[C@H](CC(C)C)NC(=O)[C@H](CCCCN)NC(=O)[C@@H](N)CCCCN)C(N)=O (H-KKLLKKLLKKLLKKLLKL-NH2)
Reported result: 1.05
//
Compound: CC(C)C[C@H](NC(=O)[C@H](CCCCN)NC(=O)[C@H](CCCCN)NC(=O)[C@H](CC(C)C)NC(=O)[C@H](CC(C)C)NC(=O)[C@H](CCCCN)NC(=O)[C@H](CCCCN)NC(=O)[C@H](CC(C)C)NC(=O)[C@H](CC(C)C)NC(=O)[C@H](CCCCN)NC(=O)[C@H](CCCCN)NC(=O)[C@H](CC(C)C)NC(=O)[C@@H](N)CC(C)C)C(=O)N[C@@H](CCCCCC(=O)O)C(N)=O (H-LLKKLLKKLLKKL[Asu]-NH2)
Reported result: 9.43
//
Compound: CC(C)C[C@H](NC(=O)[C@H](CC(C)C)NC(=O)[C@H](CCCCN)NC(=O)[C@H](CCCCN)NC(=O)[C@H](CC(C)C)NC(=O)[C@H](CC(C)C)NC(=O)[C@H](CCCCN)NC(=O)[C@H](CCCCN)NC(=O)[C@H](CCC(=O)O)NC(=O)[C@H](CC(C)C)NC(=O)[C@H](CCCCN)NC(=O)[C@H](CCCCN)NC(=O)[C@H](CC(C)C)NC(=O)[C@@H](N)CC(C)C)C(N)=O (H-LLKKLEKKLLKKLL-NH2)
Reported result: 2.47

Record CC(C)C[C@H](NC(=O)[C@H](CC(C)C)NC(=O)[C@H](CCCCN)NC(=O)[C@H](CCCCN)NC(=O)[C@H](CCC(=O)O)NC(=O)[C@H](CC(C)C)NC(=O)[C@H](CCCCN)NC(=O)[C@H](CCCCN)NC(=O)[C@H](CC(C)C)NC(=O)[C@H](CC(C)C)NC(=O)[C@H](CCCCN)NC(=O)[C@H](CCCCN)NC(=O)[C@H](CC(C)C)NC(=O)[C@@H](N)CC(C)C)C(N)=O (H-LLKKLLKKLEKKLL-NH2) , field selectivity ratio: 5.15

Record CC(C)C[C@H](NC(=O)[C@H](CC(C)C)NC(=O)[C@H](CCCCN)NC(=O)[C@H](CCCCN)NC(=O)[C@H](CC(C)C)NC(=O)[C@H](CCC(=O)O)NC(=O)[C@H](CCCCN)NC(=O)[C@H](CCCCN)NC(=O)[C@H](CC(C)C)NC(=O)[C@H](CC(C)C)NC(=O)[C@H](CCCCN)NC(=O)[C@H](CCCCN)NC(=O)[C@H](CC(C)C)NC(=O)[C@@H](N)CC(C)C)C(N)=O (H-LLKKLLKKELKKLL-NH2) , field selectivity ratio: 2.76
